So I've got a bunch of binders here, and I need their Relative binding activity values.
EXPERIMENTAL TARGET: T1, recombinant human soluble gpNMB (recombinant human gpNMB-FLAG-His) (human, UniProt Q14956 23-498)
T1 sequence: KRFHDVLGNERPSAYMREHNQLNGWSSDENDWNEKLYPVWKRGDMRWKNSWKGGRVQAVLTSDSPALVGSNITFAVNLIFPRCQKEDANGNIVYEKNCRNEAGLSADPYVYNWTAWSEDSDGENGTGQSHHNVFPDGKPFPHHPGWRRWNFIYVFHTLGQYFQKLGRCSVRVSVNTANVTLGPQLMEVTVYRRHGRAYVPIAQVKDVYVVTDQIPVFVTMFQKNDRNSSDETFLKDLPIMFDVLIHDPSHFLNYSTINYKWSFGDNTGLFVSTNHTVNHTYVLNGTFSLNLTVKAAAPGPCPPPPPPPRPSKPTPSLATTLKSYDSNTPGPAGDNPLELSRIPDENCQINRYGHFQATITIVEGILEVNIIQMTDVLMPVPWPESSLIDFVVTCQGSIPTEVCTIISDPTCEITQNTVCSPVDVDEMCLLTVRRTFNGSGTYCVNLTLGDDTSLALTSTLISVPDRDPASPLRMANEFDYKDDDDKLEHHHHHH
ASSAY EXPLANATION: antigen ELISA, vs hGPN06-1_H1L1
Please give only the number in your answer, with no unit.

## Input Look up Relative binding activity: hGPN06-1_H1L1 (antibody, V domains shown, humanized; also called humanized anti-gpNMB antibody H1L1) VH: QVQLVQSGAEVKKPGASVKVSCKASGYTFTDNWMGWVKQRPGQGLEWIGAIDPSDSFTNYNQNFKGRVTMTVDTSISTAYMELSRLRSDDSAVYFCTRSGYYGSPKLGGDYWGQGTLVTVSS VL: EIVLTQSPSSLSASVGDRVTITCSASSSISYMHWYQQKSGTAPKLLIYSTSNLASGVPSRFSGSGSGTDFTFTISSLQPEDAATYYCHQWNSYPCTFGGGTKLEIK
## Output 1

## Input Which Relative binding activity is listed for hGPN06-1_H1L1 VL S51A (antibody, V domains shown) VH: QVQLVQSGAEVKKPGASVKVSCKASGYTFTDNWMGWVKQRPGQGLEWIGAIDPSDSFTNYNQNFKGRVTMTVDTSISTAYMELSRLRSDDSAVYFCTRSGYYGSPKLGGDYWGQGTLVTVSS VL: EIVLTQSPSSLSASVGDRVTITCSASSSISYMHWYQQKSGTAPKLLIYSTANLASGVPSRFSGSGSGTDFTFTISSLQPEDAATYYCHQWNSYPCTFGGGTKLEIK ?
## Output 0.82

## Input Could you share which Relative binding activity value was measured for hGPN06-1_H1L1 VL S26A (antibody, V domains shown) VH: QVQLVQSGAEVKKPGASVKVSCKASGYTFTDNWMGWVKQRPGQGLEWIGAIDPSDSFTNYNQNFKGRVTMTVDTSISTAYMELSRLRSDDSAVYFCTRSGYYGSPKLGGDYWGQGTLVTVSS VL: EIVLTQSPSSLSASVGDRVTITCSAASSISYMHWYQQKSGTAPKLLIYSTSNLASGVPSRFSGSGSGTDFTFTISSLQPEDAATYYCHQWNSYPCTFGGGTKLEIK ?
## Output 0.75

All values here come from patent EP4772193A1.
